# METHOD_SUMMARY: chemical genetic growth profiling, strain panel (AID 1159580);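 further: tested at 20 µM; growth read once vehicle control cultures reached saturation at 30 °C; 1 = growth at the plate median or of vehicle wells; lower values mean less growth of the strain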
# CONDITION_SUMMARY: S. cerevisiae deletion strains, growth OD, locus YDR052C, strain DBF4, active compounds read low
Out of some 5,500 compounds screened, about 2,000 (36%) were called active. Another 18% or so got no clear call; they are omitted. The list shows a part of the results.
REPORTED_PROPERTY: normalized growth
Give only the figure.

Please review the following examples before continuing.
>>> endpoint_value("S=C(NCc1cccs1)Nc1cc(Cl)cc(Cl)c1")
0.96
>>> endpoint_value("O=C(Nc1cc(Cl)cc(Cl)c1)c1cc(Br)ccc1O")
0.925
>>> endpoint_value("N/C(=N/OCc1c(F)cccc1Cl)c1ccc(Cl)cc1")
0.941
>>> endpoint_value("N#CC(C(=O)Nc1cccc(C(F)(F)F)c1)C(=S)Nc1ccccc1Cl (centres undefined)")
1
>>> endpoint_value("CCOC(=O)C(O)(c1ccc(NC(=O)c2ccc(Cl)c(Cl)c2)cc1)C(F)(F)F (centres undefined)")
0.996
>>> endpoint_value("Cn1ncc(-c2nc(-c3ccc(Cl)cc3)cs2)c1N")
0.935
>>> endpoint_value("COC(=O)c1cccc(NS(=O)(=O)c2ccc(Cl)c(Cl)c2)c1")
0.972
>>> endpoint_value("O=C(Nc1ccccc1Sc1ccc(C(F)(F)F)cc1[N+](=O)[O-])C(Cl)Cl")
1

API: the following record is the query input.
Qu. What value of measured normalized growth is listed for COC(=O)c1cc(I)c(OC(C)=O)c(I)c1 ?
Ans. 0.967
